system: Alpha7 (Homo sapiens)
Sequence (P36544 23-502): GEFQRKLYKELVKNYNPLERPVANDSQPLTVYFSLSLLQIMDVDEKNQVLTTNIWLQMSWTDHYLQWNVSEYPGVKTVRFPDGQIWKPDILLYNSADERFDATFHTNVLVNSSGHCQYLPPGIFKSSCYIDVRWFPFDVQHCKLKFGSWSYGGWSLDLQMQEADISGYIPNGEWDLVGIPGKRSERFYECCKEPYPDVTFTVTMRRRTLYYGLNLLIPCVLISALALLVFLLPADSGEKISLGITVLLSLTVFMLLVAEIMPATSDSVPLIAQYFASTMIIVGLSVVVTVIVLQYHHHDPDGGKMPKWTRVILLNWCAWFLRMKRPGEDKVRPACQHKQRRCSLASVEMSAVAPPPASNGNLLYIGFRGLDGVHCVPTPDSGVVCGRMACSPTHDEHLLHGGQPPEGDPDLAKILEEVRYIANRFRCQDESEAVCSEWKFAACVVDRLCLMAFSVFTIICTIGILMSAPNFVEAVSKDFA
test.protocol: PDSP radioligand displacement binding
test.conditions: average of three independent trials
measured.parameter: Ki

compound_smiles=C/C=C1/CN2CC[C@]34C(=C(C(=O)OC)[C@H]1C[C@H]23)Nc1ccc(I)cc14 reported_measurement="5490 nM"
compound_smiles=C/C=C1/CN2CC[C@]34C(=C(C(=O)OC)[C@H]1C[C@H]23)Nc1ccc(Br)cc14 reported_measurement="7000 nM"

====

system: μOR (Homo sapiens, UniProt P35372)
Sequence (P35372 whole entry): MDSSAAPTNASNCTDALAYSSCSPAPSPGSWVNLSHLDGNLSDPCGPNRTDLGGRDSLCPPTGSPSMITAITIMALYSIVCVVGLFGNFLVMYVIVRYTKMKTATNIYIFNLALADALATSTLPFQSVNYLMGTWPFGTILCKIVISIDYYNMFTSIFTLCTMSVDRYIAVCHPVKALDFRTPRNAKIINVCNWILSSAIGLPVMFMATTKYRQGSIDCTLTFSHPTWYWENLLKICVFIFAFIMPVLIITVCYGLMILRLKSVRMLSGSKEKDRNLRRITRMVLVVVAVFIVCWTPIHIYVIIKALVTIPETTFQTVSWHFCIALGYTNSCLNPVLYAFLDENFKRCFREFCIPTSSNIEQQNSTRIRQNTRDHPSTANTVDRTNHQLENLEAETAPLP
measured.parameter: Ki (µM)

compound_smiles=C/C=C1/CN2CC[C@]34C(=C(C(=O)OC)[C@H]1C[C@H]23)Nc1ccc(I)cc14 reading_unit=µM reported_measurement=3.6

Cited source: patent US20250051332A1
